molecular target: Voltage-gated inwardly rectifying potassium channel KCNH2 (Homo sapiens, UniProt Q12809); experiment: Inhibition of human ERG at holding potential of -80 mV by cell based automated Qpatch method
Sequence (Q12809 whole entry): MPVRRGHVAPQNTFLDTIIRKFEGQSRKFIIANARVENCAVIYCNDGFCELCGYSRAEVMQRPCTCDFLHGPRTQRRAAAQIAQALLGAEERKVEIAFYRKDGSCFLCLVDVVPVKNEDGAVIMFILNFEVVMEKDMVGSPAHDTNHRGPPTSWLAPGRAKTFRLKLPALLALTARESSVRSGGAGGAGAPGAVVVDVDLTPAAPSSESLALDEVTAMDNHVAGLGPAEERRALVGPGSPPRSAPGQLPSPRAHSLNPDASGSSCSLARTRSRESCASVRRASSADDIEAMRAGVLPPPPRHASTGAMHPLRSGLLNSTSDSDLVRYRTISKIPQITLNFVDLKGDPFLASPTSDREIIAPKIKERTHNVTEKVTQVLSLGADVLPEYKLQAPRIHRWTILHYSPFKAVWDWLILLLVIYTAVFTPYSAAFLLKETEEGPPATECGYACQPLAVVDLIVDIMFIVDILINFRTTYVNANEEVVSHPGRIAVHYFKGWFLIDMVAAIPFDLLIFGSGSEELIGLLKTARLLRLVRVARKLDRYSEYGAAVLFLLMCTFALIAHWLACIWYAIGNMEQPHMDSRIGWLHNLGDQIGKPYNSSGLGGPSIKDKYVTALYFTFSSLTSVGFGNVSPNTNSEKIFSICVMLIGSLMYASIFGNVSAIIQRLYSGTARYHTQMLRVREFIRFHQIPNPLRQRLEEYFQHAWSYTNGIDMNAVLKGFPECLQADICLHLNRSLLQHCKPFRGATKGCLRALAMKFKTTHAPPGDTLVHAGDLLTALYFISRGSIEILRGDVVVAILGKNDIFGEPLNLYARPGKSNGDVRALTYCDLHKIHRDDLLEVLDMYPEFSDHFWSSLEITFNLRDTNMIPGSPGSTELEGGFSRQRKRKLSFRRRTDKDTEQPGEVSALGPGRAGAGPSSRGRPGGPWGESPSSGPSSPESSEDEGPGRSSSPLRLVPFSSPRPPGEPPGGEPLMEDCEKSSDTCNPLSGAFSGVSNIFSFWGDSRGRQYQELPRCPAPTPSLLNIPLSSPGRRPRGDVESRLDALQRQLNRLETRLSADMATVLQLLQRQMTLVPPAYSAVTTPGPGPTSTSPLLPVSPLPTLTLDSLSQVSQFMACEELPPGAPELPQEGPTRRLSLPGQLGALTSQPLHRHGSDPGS
observation type: IC50

[[record]]
chemical_smiles = "COc1cc2c(cc1OC)Nc1ncnc(Oc3ccc(NC(=O)C4(C(=O)Nc5ccc(F)cc5)CC4)cc3F)c1NC2"
test_result = "> 40 µM"


* * *

experiment: Cmax in Sprague-Dawley rat at 20 mg/kg, po measured after 5 mins to 4 hrs post dose by LC-MS/MS method; assay type: ADME, organism-based; parameters: dose 20 mg/kg, route oral; details: in vivo
observation type: Cmax (ng/mL)

[[record]]
chemical_smiles = "COc1cc2c(cc1OC)Nc1ncnc(Oc3ccc(NC(=O)C4(C(=O)Nc5ccc(F)cc5)CC4)cc3F)c1NC2"
units_text = "ng/mL"
test_result = 1930


* * *

biological target: Epidermal growth factor receptor (Homo sapiens)
Sequence (P00533 whole entry): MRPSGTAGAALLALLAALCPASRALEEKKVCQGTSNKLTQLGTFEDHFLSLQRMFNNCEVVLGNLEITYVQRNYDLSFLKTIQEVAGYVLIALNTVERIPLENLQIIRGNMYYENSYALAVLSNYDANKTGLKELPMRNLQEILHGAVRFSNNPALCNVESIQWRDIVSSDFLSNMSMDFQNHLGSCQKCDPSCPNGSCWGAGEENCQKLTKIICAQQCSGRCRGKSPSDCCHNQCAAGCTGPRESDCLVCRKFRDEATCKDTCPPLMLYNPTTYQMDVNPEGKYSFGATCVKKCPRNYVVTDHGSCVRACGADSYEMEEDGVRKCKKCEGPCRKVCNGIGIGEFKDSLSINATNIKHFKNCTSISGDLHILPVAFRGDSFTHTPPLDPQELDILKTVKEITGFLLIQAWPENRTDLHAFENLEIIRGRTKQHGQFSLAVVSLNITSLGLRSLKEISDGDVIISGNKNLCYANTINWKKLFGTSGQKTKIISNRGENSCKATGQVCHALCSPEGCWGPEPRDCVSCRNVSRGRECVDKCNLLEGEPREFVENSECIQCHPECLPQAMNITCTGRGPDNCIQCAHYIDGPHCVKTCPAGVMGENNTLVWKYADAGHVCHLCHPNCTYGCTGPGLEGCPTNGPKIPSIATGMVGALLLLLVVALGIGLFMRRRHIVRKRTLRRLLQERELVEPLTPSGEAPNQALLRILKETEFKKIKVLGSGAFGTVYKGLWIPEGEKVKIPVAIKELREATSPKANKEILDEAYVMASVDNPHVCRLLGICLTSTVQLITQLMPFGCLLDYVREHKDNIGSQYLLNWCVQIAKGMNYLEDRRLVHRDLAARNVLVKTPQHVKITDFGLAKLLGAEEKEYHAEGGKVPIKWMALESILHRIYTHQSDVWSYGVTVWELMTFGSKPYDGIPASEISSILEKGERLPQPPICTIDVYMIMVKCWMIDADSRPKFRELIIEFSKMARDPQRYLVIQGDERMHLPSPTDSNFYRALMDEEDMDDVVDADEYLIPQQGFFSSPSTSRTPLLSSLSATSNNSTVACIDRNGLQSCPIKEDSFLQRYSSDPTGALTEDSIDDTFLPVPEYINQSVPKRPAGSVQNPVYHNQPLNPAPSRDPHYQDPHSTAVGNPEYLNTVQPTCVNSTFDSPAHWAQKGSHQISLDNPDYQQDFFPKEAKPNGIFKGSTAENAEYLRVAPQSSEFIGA
observation type: IC50 (nM)

[[record]]
chemical_smiles = "COc1cc2c(cc1OC)Nc1ncnc(Oc3ccc(NC(=O)C4(C(=O)Nc5ccc(F)cc5)CC4)cc3F)c1NC2"
test_result = 268


* * *

experiment: Toxicity in KM mouse assessed as mouse survival at 620 mg/kg, po administered as single dose measured daily for 14 days (reference value: 100%); format: organism-based; conditions: in vivo
observation type: survival at 336 h (%)

[[record]]
chemical_smiles = "COc1cc2c(cc1OC)Nc1ncnc(Oc3ccc(NC(=O)C4(C(=O)Nc5ccc(F)cc5)CC4)cc3F)c1NC2"
units_text = "%"
test_result = 100


* * *

assay: Apparent volume of distribution during terminal phase in Sprague-Dawley rat at 20 mg/kg, po measured after 5 mins to 4 hrs post dose by LC-MS/MS method; assay type: ADME, organism-based; conditions: in vivo, read-out: Vz/F
observation type: Vd/F (L/kg)

[[record]]
chemical_smiles = "COc1cc2c(cc1OC)Nc1ncnc(Oc3ccc(NC(=O)C4(C(=O)Nc5ccc(F)cc5)CC4)cc3F)c1NC2"
observation_type = "Vd/F"
test_result = 4.52


* * *

assay: AUC (0 to t) in Sprague-Dawley rat at 20 mg/kg, po measured after 5 mins to 4 hrs post dose by LC-MS/MS method; format: ADME, organism-based; set-up: time 0.083-4 hr, dose 20 mg/kg, route oral; conditions: in vivo
observation type: AUC(0-t) (ng·h/mL)

[[record]]
chemical_smiles = "COc1cc2c(cc1OC)Nc1ncnc(Oc3ccc(NC(=O)C4(C(=O)Nc5ccc(F)cc5)CC4)cc3F)c1NC2"
observation_type = "AUC(0-t)"
units_text = "ng·h/mL"
test_result = 6990


* * *

target: Vascular endothelial growth factor receptor 2 (Homo sapiens)
Sequence (P35968 whole entry): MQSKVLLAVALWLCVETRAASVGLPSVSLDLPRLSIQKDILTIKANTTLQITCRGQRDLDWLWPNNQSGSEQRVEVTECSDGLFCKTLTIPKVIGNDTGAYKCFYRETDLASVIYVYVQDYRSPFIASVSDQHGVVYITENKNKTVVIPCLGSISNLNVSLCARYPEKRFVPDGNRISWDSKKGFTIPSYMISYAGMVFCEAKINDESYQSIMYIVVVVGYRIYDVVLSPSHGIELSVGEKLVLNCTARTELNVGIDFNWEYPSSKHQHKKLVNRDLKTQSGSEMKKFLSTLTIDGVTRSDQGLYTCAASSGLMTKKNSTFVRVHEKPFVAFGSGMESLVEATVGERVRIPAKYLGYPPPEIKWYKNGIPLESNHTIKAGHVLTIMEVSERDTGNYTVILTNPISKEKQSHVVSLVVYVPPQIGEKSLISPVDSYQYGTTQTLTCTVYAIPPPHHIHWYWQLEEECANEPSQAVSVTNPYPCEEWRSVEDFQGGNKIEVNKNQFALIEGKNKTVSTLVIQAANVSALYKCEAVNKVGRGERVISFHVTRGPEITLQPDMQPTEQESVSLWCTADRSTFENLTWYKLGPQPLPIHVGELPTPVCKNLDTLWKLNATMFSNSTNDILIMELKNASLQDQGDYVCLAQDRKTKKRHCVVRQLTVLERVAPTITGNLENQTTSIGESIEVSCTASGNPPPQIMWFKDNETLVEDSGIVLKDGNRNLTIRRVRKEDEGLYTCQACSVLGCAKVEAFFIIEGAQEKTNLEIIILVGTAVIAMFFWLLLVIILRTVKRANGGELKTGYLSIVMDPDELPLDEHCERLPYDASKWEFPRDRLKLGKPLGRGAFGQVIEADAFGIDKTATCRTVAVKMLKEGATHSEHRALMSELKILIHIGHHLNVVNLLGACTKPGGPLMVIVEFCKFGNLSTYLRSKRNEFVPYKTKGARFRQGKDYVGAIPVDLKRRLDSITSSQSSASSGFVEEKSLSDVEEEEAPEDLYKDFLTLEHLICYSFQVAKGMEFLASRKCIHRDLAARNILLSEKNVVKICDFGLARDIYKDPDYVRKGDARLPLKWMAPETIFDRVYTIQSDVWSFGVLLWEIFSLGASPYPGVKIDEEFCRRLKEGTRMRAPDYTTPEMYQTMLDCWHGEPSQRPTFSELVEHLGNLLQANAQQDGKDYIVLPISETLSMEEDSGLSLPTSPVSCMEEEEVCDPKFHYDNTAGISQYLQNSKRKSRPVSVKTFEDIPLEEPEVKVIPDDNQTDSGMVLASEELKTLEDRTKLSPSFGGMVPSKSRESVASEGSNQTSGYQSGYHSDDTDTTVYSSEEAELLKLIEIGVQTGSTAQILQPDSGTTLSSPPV
observation type: IC50 (nM)

[[record]]
chemical_smiles = "COc1cc2c(cc1OC)Nc1ncnc(Oc3ccc(NC(=O)C4(C(=O)Nc5ccc(F)cc5)CC4)cc3F)c1NC2"
observation_type = "IC50"
test_result = 62.5


* * *

molecular target: Receptor-type tyrosine-protein kinase FLT3 (Homo sapiens, UniProt P36888)
Sequence (P36888 whole entry): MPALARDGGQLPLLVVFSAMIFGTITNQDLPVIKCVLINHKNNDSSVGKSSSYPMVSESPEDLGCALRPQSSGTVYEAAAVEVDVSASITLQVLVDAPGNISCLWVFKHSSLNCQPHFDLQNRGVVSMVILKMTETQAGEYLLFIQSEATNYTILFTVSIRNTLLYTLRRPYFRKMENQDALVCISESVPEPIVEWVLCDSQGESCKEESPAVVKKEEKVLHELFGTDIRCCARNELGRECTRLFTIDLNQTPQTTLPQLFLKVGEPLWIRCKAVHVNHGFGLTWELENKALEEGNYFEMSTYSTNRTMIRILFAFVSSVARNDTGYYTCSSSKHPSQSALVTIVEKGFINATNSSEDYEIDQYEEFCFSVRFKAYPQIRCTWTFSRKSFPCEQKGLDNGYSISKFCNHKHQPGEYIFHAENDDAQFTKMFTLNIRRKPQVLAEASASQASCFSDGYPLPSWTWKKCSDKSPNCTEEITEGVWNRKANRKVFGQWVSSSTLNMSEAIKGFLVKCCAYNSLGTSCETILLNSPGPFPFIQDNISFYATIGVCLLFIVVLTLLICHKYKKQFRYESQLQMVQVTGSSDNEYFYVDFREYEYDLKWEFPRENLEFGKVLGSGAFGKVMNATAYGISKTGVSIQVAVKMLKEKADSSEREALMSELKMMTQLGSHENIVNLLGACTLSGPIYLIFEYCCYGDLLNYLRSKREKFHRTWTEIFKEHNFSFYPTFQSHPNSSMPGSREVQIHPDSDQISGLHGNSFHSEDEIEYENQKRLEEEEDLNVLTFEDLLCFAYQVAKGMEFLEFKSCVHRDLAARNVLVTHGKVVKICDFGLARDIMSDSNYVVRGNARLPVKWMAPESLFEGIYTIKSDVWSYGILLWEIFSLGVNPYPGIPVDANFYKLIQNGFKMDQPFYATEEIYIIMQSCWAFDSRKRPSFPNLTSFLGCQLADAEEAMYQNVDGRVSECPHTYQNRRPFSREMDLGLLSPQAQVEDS
pIC50: −log10 of the molar value.
observation type: pIC50

[[record]]
chemical_smiles = "COc1cc2c(cc1OC)Nc1ncnc(Oc3ccc(NC(=O)C4(C(=O)Nc5ccc(F)cc5)CC4)cc3F)c1NC2"
observation_type = "pIC50"
test_result = 6.07


* * *

assay: Toxicity in KM mouse assessed as mouse survival at 520 mg/kg, po administered as single dose measured daily for 14 days (reference value: 100%); assay type: organism-based; conditions: in vivo
observation type: survival at 336 h (%)

[[record]]
chemical_smiles = "COc1cc2c(cc1OC)Nc1ncnc(Oc3ccc(NC(=O)C4(C(=O)Nc5ccc(F)cc5)CC4)cc3F)c1NC2"
observation_type = "survival at 336 h"
test_result = 100


* * *

experiment: MRT (0 to t) in Sprague-Dawley rat at 20 mg/kg, po measured after 5 mins to 4 hrs post dose by LC-MS/MS method; type: ADME, organism-based; conditions: in vivo
observation type: MRT last (h)

[[record]]
chemical_smiles = "COc1cc2c(cc1OC)Nc1ncnc(Oc3ccc(NC(=O)C4(C(=O)Nc5ccc(F)cc5)CC4)cc3F)c1NC2"
test_result = 2.36


* * *

test: Toxicity in KM mouse assessed as mouse survival at 720 mg/kg, po administered as single dose measured daily for 14 days (reference value: 100%); assay type: organism-based; conditions: in vivo
observation type: survival at 336 h (%)

[[record]]
chemical_smiles = "COc1cc2c(cc1OC)Nc1ncnc(Oc3ccc(NC(=O)C4(C(=O)Nc5ccc(F)cc5)CC4)cc3F)c1NC2"
test_result = 80


* * *

assay: AUC (0 to infinity) in Sprague-Dawley rat at 4 mg/kg, iv measured after 5 mins to 4 hrs post dose by LC-MS/MS method; format: ADME, organism-based; parameters: dose 4 mg/kg, time infinity, route intravenous; details: in vivo
observation type: AUC(0-inf) (ng·h/mL)

[[record]]
chemical_smiles = "COc1cc2c(cc1OC)Nc1ncnc(Oc3ccc(NC(=O)C4(C(=O)Nc5ccc(F)cc5)CC4)cc3F)c1NC2"
observation_type = "AUC(0-inf)"
units_text = "ng·h/mL"
test_result = 3590


* * *

assay: Elimination half life in Sprague-Dawley rat at 20 mg/kg, po measured after 5 mins to 4 hrs post dose by LC-MS/MS method; format: ADME, organism-based; settings: in vivo, read-out: beta t1/2 (converted)
observation type: half-life (h)

[[record]]
chemical_smiles = "COc1cc2c(cc1OC)Nc1ncnc(Oc3ccc(NC(=O)C4(C(=O)Nc5ccc(F)cc5)CC4)cc3F)c1NC2"
observation_type = "half-life"
test_result = 1.09


Cited source: ChEMBL document CHEMBL4190351
